Data provenance is the NIST ThermoML archive (doi:10.1016/j.jct.2017.09.005).

Would you mind telling me the reported mass density of each entry?
# condition-details: 423.11 K; Liquid; Vibrating tube method
Answers are plain numbers, in kg/m3.

The cases that follow already have their mass density on record.
[[record]]
input_smiles = "Cc1c[nH]c(C)c1"
measured_result = 807.2

[[record]]
input_smiles = "Cc1ccc(C)[nH]1"
measured_result = 819.6

[[record]]
input_smiles = "c1cc[nH]c1"
measured_result = 847.6


Turning now to a further record.
Task: Quick one: mass density of `Cn1cccc1` ?
Result: 772.1

* * *

# condition-details: 323.14 K; Liquid; Vibrating tube method
Would you kindly list mass density for each of these compounds?
Answers are plain numbers, in kg/m3.

Guide cases for mass density, answers given:
[[record]]
input_smiles = "Cc1ccc(C)[nH]1"
readout_unit = "kg/m3"
measured_result = 910.8

[[record]]
input_smiles = "c1cc[nH]c1"
readout_unit = "kg/m3"
measured_result = 943.9

[[record]]
input_smiles = "Cn1cccc1"
readout_unit = "kg/m3"
measured_result = 879.5


Let us move to another entry and its mass density.
Task: What value of mass density has been recorded for this entry: `Cc1c[nH]c(C)c1`
Result: 895.5

* * *

# test-details: molar heat capacity at saturation pressure
# condition-details: 480 K; Liquid; Small sample (50 mg) DSC
experimental-readout: molar heat capacity (J/K/mol)
Give bare numbers, in J/K/mol.

Example compounds with recorded molar heat capacity:
[[record]]
compound = "Cc1ccc(C)[nH]1 [2,5-dimethyl-1H-pyrrole]"
experimental_readout = "molar heat capacity"
readout_unit = "J/K/mol"
measured_result = 256.87

[[record]]
compound = "Cn1cccc1 [N-methylpyrrole]"
experimental_readout = "molar heat capacity"
readout_unit = "J/K/mol"
measured_result = 201.34

[[record]]
compound = "Cc1c[nH]c(C)c1 [2,4-dimethyl-1H-pyrrole]"
experimental_readout = "molar heat capacity"
readout_unit = "J/K/mol"
measured_result = 253.77


// below: molar heat capacity requested for another compound
Task: Value lookup for molar heat capacity; key = c1cc[nH]c1 [pyrrole]
Result: 171.79
